Exercise: state measured binding signal for each of the sequences provided.
assayTarget: p52p52 homodimer (Homo sapiens, UniProt Q00653 4-332)
Sequence: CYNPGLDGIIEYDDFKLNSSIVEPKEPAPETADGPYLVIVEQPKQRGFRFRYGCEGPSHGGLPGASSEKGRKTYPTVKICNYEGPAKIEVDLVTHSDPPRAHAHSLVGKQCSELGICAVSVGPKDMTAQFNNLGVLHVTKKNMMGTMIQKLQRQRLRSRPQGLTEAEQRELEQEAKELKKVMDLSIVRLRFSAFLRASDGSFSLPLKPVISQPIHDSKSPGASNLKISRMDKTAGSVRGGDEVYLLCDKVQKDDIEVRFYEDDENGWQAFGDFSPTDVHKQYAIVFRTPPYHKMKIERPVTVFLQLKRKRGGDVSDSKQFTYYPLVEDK
assayDetails: protein binding microarray; high values mean tight binding
conditionDetails: dsDNA, one strand shown
// return numeric value only (unit: z-score, not printed)

Query string: Tell me the measured binding signal of AAGAGATCCCT , please.
Result string: -0.142

Query string: Tell me the measured binding signal of CGGTTTTTCCC , please.
Result string: 2.66

Query string: Tell me the measured binding signal of GGATAGACCCC , please.
Result string: -0.227

Query string: Tell me the measured binding signal of CAGTGTTTCCT , please.
Result string: -0.52

Query string: Tell me the measured binding signal of AAGTAGACCCT , please.
Result string: -0.531

Query string: Tell me the measured binding signal of CGAGTGACCCT , please.
Result string: -0.545

Query string: Tell me the measured binding signal of GGGTGCTCCCT , please.
Result string: 0.0774

Query string: Tell me the measured binding signal of GGGGTCGCCCC , please.
Result string: 2.74

Query string: Tell me the measured binding signal of CAAGTATTCCT , please.
Result string: -0.607

Query string: Tell me the measured binding signal of GGATGTCCCCC , please.
Result string: 1.17

Query string: Tell me the measured binding signal of GAAAAAACCCC , please.
Result string: 2.74

Query string: Tell me the measured binding signal of GGATAATCCCC , please.
Result string: 2.24

Query string: Tell me the measured binding signal of GGGAAGACCCT , please.
Result string: 1.66

Query string: Tell me the measured binding signal of GAGTACACCCT , please.
Result string: -0.573

Query string: Tell me the measured binding signal of GAAAGGTTCCC , please.
Result string: -0.241

Query string: Tell me the measured binding signal of GGGTAGGCCCC , please.
Result string: 1.45

Query string: Tell me the measured binding signal of AGAATGTTCCT , please.
Result string: -0.491

Query string: Tell me the measured binding signal of AAAGAATTCCC , please.
Result string: 1.36

Query string: Tell me the measured binding signal of CGAGGCATCCC , please.
Result string: -0.635

Query string: Tell me the measured binding signal of CAGTGCATCCT , please.
Result string: -0.705

Query string: Tell me the measured binding signal of GAGTATATCCT , please.
Result string: -0.578

Query string: Tell me the measured binding signal of GGAAATTTCCT , please.
Result string: 0.15

Query string: Tell me the measured binding signal of GAGAATGTCCT , please.
Result string: -0.437

Query string: Tell me the measured binding signal of GGAGTTTTCCT , please.
Result string: -0.329

Query string: Tell me the measured binding signal of AGGATACCCCC , please.
Result string: 0.992

Query string: Tell me the measured binding signal of CGGTTGCTCCT , please.
Result string: -0.686

Query string: Tell me the measured binding signal of CAGAGACCCCC , please.
Result string: 0.0929

Query string: Tell me the measured binding signal of GAGAAACCCCC , please.
Result string: 2.15

Query string: Tell me the measured binding signal of AGAGGCGTCCC , please.
Result string: 0.07

Query string: Tell me the measured binding signal of AAATTTGCCCT , please.
Result string: -0.202

Query string: Tell me the measured binding signal of GGAAATGTCCC , please.
Result string: 1.14

Query string: Tell me the measured binding signal of AGAAGTCCCCC , please.
Result string: 1.58

Query string: Tell me the measured binding signal of AGAGATGCCCT , please.
Result string: -0.655

Query string: Tell me the measured binding signal of CGAGTGGTCCC , please.
Result string: -0.0457

Query string: Tell me the measured binding signal of CGGAACACCCT , please.
Result string: -0.238

Query string: Tell me the measured binding signal of GAGGTTGCCCT , please.
Result string: -0.704

Query string: Tell me the measured binding signal of CAGTAGGTCCC , please.
Result string: -0.0746

Query string: Tell me the measured binding signal of GAAGTGCTCCT , please.
Result string: -0.792

Query string: Tell me the measured binding signal of AGGATAATCCC , please.
Result string: 0.47

Query string: Tell me the measured binding signal of AAAGTGATCCT , please.
Result string: -0.692

Query string: Tell me the measured binding signal of CAAGAACCCCC , please.
Result string: 1.21

Query string: Tell me the measured binding signal of AGGGAGTTCCT , please.
Result string: 1.12

Query string: Tell me the measured binding signal of GGGATGCCCCT , please.
Result string: 2.65

Query string: Tell me the measured binding signal of CAGTTACTCCT , please.
Result string: -0.649

Query string: Tell me the measured binding signal of CAAGATTCCCT , please.
Result string: 0.975

* * *

assayTarget: p50p50 homodimer (Homo sapiens, UniProt P19838 7-356)
Sequence (P19838 7-356): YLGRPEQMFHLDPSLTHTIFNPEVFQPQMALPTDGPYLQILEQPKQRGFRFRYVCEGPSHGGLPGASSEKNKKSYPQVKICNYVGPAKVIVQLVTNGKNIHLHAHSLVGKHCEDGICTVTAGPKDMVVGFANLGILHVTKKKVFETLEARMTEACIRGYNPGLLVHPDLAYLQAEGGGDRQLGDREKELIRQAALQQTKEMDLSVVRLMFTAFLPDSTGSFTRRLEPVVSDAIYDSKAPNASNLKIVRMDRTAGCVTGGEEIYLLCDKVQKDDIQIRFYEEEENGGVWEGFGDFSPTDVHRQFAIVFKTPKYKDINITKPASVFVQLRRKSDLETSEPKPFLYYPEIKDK
assayDetails: protein binding microarray; high values mean tight binding
conditionDetails: dsDNA, one strand shown
Think of 0.2 z-score as a floor: if binding signal stands on it or above, it is yes; beneath it, no.

Query string: Check the entry AAATAGATCCC : does binding signal equal or exceed 0.2 z-score?
Result string: no

Query string: Check the entry AAATTTTTCCC : does binding signal equal or exceed 0.2 z-score?
Result string: yes

Query string: Check the entry GAAGGCTCCCT : does binding signal equal or exceed 0.2 z-score?
Result string: no

Query string: Check the entry AAATAAACCCT : does binding signal equal or exceed 0.2 z-score?
Result string: no

Query string: Check the entry AAGAAGGTCCT : does binding signal equal or exceed 0.2 z-score?
Result string: no

Query string: Check the entry CAGGTGCTCCT : does binding signal equal or exceed 0.2 z-score?
Result string: no

Query string: Check the entry AGAATCCCCCC : does binding signal equal or exceed 0.2 z-score?
Result string: yes

Query string: Check the entry AAATACACCCC : does binding signal equal or exceed 0.2 z-score?
Result string: yes

Query string: Check the entry AAAGTCGTCCT : does binding signal equal or exceed 0.2 z-score?
Result string: no

Query string: Check the entry AGAGTATTCCC : does binding signal equal or exceed 0.2 z-score?
Result string: yes

Query string: Check the entry AAAGTCCCCCT : does binding signal equal or exceed 0.2 z-score?
Result string: yes

Query string: Check the entry AAGAATGTCCC : does binding signal equal or exceed 0.2 z-score?
Result string: yes

Query string: Check the entry GGAAACTCCCC : does binding signal equal or exceed 0.2 z-score?
Result string: yes

* * *

assayTarget: RELB subunit;p50 subunit (Homo sapiens;Homo sapiens, UniProt Q01201;P19838 120-401;7-356)
Sequence (Q01201 120-401, chain 1 of 2): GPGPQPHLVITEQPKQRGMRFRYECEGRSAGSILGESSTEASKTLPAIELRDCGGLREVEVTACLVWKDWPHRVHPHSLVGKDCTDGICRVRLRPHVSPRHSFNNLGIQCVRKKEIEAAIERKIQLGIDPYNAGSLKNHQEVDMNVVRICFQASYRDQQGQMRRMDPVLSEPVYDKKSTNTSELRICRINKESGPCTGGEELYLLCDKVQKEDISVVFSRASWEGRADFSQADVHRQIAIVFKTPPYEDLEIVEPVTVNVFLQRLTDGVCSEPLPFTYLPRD
Sequence (P19838 7-356, chain 2 of 2): as the sequence (P19838 7-356) above
assayDetails: protein binding microarray; high values mean tight binding
conditionDetails: dsDNA, one strand shown
Exercise: state measured binding signal for each of the sequences provided.
// return numeric value only (unit: z-score, not printed)

Query string: Provide value of binding signal for this record tested with RELB subunit;p50 subunit (Homo sapiens;Homo sapiens, UniProt Q01201;P19838 120-401;7-356): CAAGGGTCCCT
Result string: 0.363

Query string: Provide value of binding signal for this record tested with RELB subunit;p50 subunit (Homo sapiens;Homo sapiens, UniProt Q01201;P19838 120-401;7-356): CGATTGACCCC
Result string: -0.398

Query string: Provide value of binding signal for this record tested with RELB subunit;p50 subunit (Homo sapiens;Homo sapiens, UniProt Q01201;P19838 120-401;7-356): AGGAGCCTCCC
Result string: -0.76

Query string: Provide value of binding signal for this record tested with RELB subunit;p50 subunit (Homo sapiens;Homo sapiens, UniProt Q01201;P19838 120-401;7-356): CAGATGACCCC
Result string: -0.204

Query string: Provide value of binding signal for this record tested with RELB subunit;p50 subunit (Homo sapiens;Homo sapiens, UniProt Q01201;P19838 120-401;7-356): GGGGGTGCCCC
Result string: 2.52

Query string: Provide value of binding signal for this record tested with RELB subunit;p50 subunit (Homo sapiens;Homo sapiens, UniProt Q01201;P19838 120-401;7-356): CAGTGGTCCCC
Result string: 0.612

Query string: Provide value of binding signal for this record tested with RELB subunit;p50 subunit (Homo sapiens;Homo sapiens, UniProt Q01201;P19838 120-401;7-356): AAATGGACCCC
Result string: -0.448

Query string: Provide value of binding signal for this record tested with RELB subunit;p50 subunit (Homo sapiens;Homo sapiens, UniProt Q01201;P19838 120-401;7-356): CAATAAGTCCT
Result string: -0.817

Every entry's value here was drawn from paper PMC3218832.
